measured_target: nociceptin receptor ORL1 (Homo sapiens, UniProt P41146)
Sequence (P41146 whole entry): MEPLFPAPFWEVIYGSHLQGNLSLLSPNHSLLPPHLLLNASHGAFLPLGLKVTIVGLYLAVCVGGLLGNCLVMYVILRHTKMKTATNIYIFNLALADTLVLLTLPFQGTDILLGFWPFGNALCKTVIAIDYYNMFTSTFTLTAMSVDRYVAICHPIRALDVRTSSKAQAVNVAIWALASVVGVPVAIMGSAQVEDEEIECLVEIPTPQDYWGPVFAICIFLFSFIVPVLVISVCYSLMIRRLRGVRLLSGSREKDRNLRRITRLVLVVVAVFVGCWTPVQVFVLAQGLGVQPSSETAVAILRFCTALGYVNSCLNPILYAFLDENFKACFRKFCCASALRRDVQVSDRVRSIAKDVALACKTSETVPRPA
assay_info: Antagonism against nociceptin-elicited G protein activation (GTPγ[35S] binding, CHO/ORL1 membrane)
Format: biochemical
Set-up: expressed in transfected cells; membrane preparation
# Met = IC50 below 2 nM (exclusive); Not met = IC50 at/above 2 nM

compound | assigned_category
O[C@H]1C[C@H](CN2C3CCC2CC2(C3)OCc3cc(F)ncc32)CCc2cccnc21 (stereo partly shown) [Example 23] | Met
Cl.O[C@@H]1[C@@H](c2ccc(F)cc2Cl)CC2CC[C@@H]1N2C[C@@H]1Cc2cccnc2[C@@H](O)C1 (relative stereo) [Example 71, monohydrochloride] | Met
Cl.O[C@H]1C[C@H](CN2CC[C@H](c3ccccc3Cl)[C@@H](O)C2)CCc2cccnc21 (relative stereo) [Example 31, monohydrochloride] | Not met
CC1(C)OC2(CCN(C[C@@H]3Cc4cccnc4[C@@H](O)C3)CC2)c2ccccc21.O=C(O)C(O)C(O)C(=O)O [Example 25, mono-L-tartrate] | Not met
O=C(O)C(O)C(O)C(=O)O.O[C@H]1C[C@H](CN2CCC(F)(c3ccccc3Cl)CC2)Cc2cccnc21 [Example 29, mono-L-tartrate] | Not met
O[C@H]1C[C@H](CN2C3CCC2CC2(C3)OCc3ccccc32)CCc2cccnc21 (stereo partly shown) [Example 10] | Met
CC1(C)OC2(CC3CCC(C2)N3C[C@@H]2Cc3cccnc3[C@@H](O)C2)c2cnc(F)cc21 (stereo partly drawn) [Example 70, mono-L-tartrate] | Met
